Data provenance: the DeepSol protein solubility set

assay: soluble on expression in E. coli; label from the status in PepcDB or PDB records
Reported Metric: soluble on expression in E. coli

Sequence Code	Result
SLSERVRTYWIIIELKHKAREKPYDSKSLRTALQKEITTRYQLDPKFITSILYENNVITIDLVQNSSQKTQNDVDIADVAYYFEKDVKGESLFHSKKMDLTVNGEQLDLDPGQTLIYYVDEKAPEFSEG	soluble
MGRVAEKVIIIGNNFGNDKSAVTVLFTDNMEKENKAAVVGVDNTTIYCMAPRQAEGFNKITVKVNDQTVVADETFKYSVSENVSTIAGDFVQADGAGKDGSLAEATFGQMFGVACIDEQSGIVGQAWNNNSVRYISIDEDAVITIQSGPVVGKVAVSNDKTLAYGATINGANTVYVYKKSQAWVPSRLSDISSGTDVWAVALNGDNQWLYYVTANGRLGRIEVDNPTHNEILFEHNDFSGGPFAYIAYSAFEDCFYVTTDKNKILKVWVKEDGTHAYEQINQNNTGTTDGFLADEAKFQYLRGLTIDEDGNIFVCQGDNSHVIRKIAYDENMEKRYVTTVLGTSTVHGTDDGSPDIALFNGPQDISYDGNGGYWIAMRYEPALRKYSIELEHHHHHH	soluble
